readout-type: melting point (°C)

compound="N#CC1=C(c2ccsc2)Nc2n[nH]cc2C1c1cccc2nonc12 (stereo not drawn)" readout_type="melting point" measured=242
compound="CCCC1=C(C(=O)OCC)C(c2ccccc2OCC)c2c[nH]nc2N1 (stereo not drawn)" readout_type="melting point" measured=203
compound="N#CC1=C(C2CCCCN2)Nc2n[nH]cc2C1c1cccc(C#N)c1Br.O=C(O)C(F)(F)F (stereo not drawn)" readout_type="melting point" measured=232
compound="CCCC1=C([N+](=O)[O-])C(c2ccccc2SC)c2c[nH]nc2N1 (stereo not drawn)" readout_type="melting point" measured=211
compound="CCCC1=C(C(=O)OCC)C(c2ccccc2N)c2c[nH]nc2N1 (stereo not drawn)" readout_type="melting point" measured=179
compound="CCCC1=C(C(=O)OCC)C(c2ccccc2[S+](C)[O-])c2c[nH]nc2N1 (stereo not drawn)" readout_type="melting point" measured=216
compound="CCCCc1ccccc1C1C(C(=O)OCC)=C(CCC)Nc2[nH]ncc21 (stereo not drawn)" readout_type="melting point" measured=175
compound="CCOC(=O)C1=C(c2cccs2)Nc2n[nH]cc2C1c1ccccc1Cl (stereo not drawn)" readout_type="melting point" measured=200

* * *

readout-type: melting point

// known answers, use as guide
compound="N#CC1=C(C2CC(=O)N(Cc3ccccc3)C2)Nc2n[nH]cc2C1c1ccccc1Cl (centres unmarked)" measured="> 230 °C"
compound="COc1cccc(C2=C(C#N)C(c3cccc4nonc34)c3c[nH]nc3N2)c1 (centres unmarked)" measured="198 °C"
compound="Cc1ccc(C2=C(C#N)C(c3cccc4nonc34)c3c[nH]nc3N2)s1 (centres unmarked)" measured="192 °C"
compound="CCOC(=O)C1=C(C(F)(F)F)Nc2n[nH]cc2C1c1cccc(Cl)c1 (centres unmarked)" measured="144 to 145 °C"
compound="CCCC1=C(C(=O)OC)C(c2ccccc2Cl)c2c[nH]nc2N1 (centres unmarked)" measured="203 to 207 °C"
compound="N#CC1=C(C2CC2)Nc2n[nH]cc2C1c1cccc(N2CCOCC2)c1 (centres unmarked)" measured="> 260 °C"

Asked: Quick one: melting point for CCCC1=C(C(=O)OCC)C(c2ccccc2Cl)c2cnn(C(=O)OC(C)(C)C)c2N1 (centres unmarked) ?
Given back: 112 to 116 °C

Asked: And for CCCC1=C(c2ccccn2)C(c2cccc(C#N)c2Br)c2c[nH]nc2N1 (centres unmarked) ?
Given back: 205 to 208 °C (dec.)

Asked: And for CCC1=C(C#N)C(c2ccccc2OC)c2c[nH]nc2N1 (centres unmarked) ?
Given back: 230 to 232 °C

* * *

readout-type: melting point (°C)

compound="N#CC1=C(c2cccs2)Nc2n[nH]cc2C1c1cccc2nsnc12 (centres unmarked)" measurement_unit=°C measured=254
compound="CCCC1=C(C(=O)OCC)C(c2cc(OC)ccc2Cl)c2c[nH]nc2N1 (centres unmarked)" measurement_unit=°C measured=182
compound="CCOC(=O)C1=C(c2ccc(OC)cc2)Nc2n[nH]cc2C1c1ccccc1Cl (centres unmarked)" measurement_unit=°C measured=211

* * *

readout-type: melting point (°C)

molecule="CC(C)(C)OC(=O)N1CCC(C2=C(C#N)C(c3cccc4nonc34)c3c[nH]nc3N2)CC1 (stereo not drawn)" measurement_unit=°C measured=226
molecule="CN(CC1=C(C#N)C(c2cccc3nonc23)c2c[nH]nc2N1)C(=O)OC(C)(C)C (stereo not drawn)" measurement_unit=°C measured=207
molecule="CC(C)(C)C1=C(C#N)C(c2ccccc2Cl)c2c[nH]nc2N1 (stereo not drawn)" measurement_unit=°C measured=198
molecule="COCC1=C(C(=O)OC)C(c2ccccc2Cl)c2c[nH]nc2N1 (stereo not drawn)" measurement_unit=°C measured=160
molecule="CCCC1=C(C#N)C(c2ccccc2Cl)c2c(n[nH]c2C(OC)OC)N1 (stereo not drawn)" measurement_unit=°C measured=212
molecule="N#CC1=C(C2CCCC2)Nc2n[nH]cc2C1c1cccc(C#N)c1Br (stereo not drawn)" measurement_unit=°C measured=247
molecule="Cc1ccsc1C1=C(C#N)C(c2cccc3nonc23)c2c[nH]nc2N1 (stereo not drawn)" measurement_unit=°C measured=202

* * *

readout-type: melting point (°C)

compound="CCCC1=C(C#N)C(c2ccccc2SC)c2c[nH]nc2N1 (stereo not drawn)" readout_type="melting point" measured=216
compound="COc1cccc(C2=C(C#N)C(c3ccccc3[N+](=O)[O-])c3c[nH]nc3N2)c1 (stereo not drawn)" readout_type="melting point" measured=220
compound="CC1=C(C#N)C(c2cccc3nonc23)c2c[nH]nc2N1 (stereo not drawn)" readout_type="melting point" measured=212
compound="CCCC1=C(C#N)C(c2ccccc2Cl)c2c(n[nH]c2-c2cccc(OC)c2)N1 (stereo not drawn)" readout_type="melting point" measured=239
compound="CCCC1=C(C(=O)OCC)C(c2ccccc2CCC)c2cn[nH]c2N1 (stereo not drawn)" readout_type="melting point" measured=197
compound="CCCOc1ccccc1C1C(C(=O)OCC)=C(CCC)Nc2n[nH]cc21 (stereo not drawn)" readout_type="melting point" measured=205

* * *

readout-type: melting point (°C)

molecule="CCCC1=C(C#N)C(c2ccccc2Cl)c2c(n[nH]c2CC(OC)OC)N1 (stereo not shown)" readout_type="melting point" measurement_unit=°C measured=180
molecule="N#CC1=C(C2=CCNCC2)Nc2n[nH]cc2C1c1cccc(C#N)c1Br (stereo not shown)" readout_type="melting point" measurement_unit=°C measured=226
molecule="CCCC1=C(C(=O)OCC)C(c2cccc(Cl)c2C)c2c[nH]nc2N1 (stereo not shown)" readout_type="melting point" measurement_unit=°C measured=185

* * *

readout-type: melting point (°C)

compound="CCCC1=C(C#N)C(c2ccccc2Cl)c2c(OC(=O)OC(C)(C)C)n[nH]c2N1 (stereo not drawn)" readout_type="melting point" measured=182
compound="CCCC1=C(C#N)C(c2ccccc2OC)c2c[nH]nc2N1 (stereo not drawn)" readout_type="melting point" measured=203
compound="COc1ccc(C2=C(C#N)C(c3ccccc3[N+](=O)[O-])c3c[nH]nc3N2)cc1 (stereo not drawn)" readout_type="melting point" measured=215

[A] CC1=C(C(=O)NN)C(c2ccccc2Cl)c2c[nH]nc2N1 (stereo not drawn)
[B] CCCC1=C(C(=O)OCC)C(c2ccccc2OCc2ccccc2)c2c[nH]nc2N1 (stereo not drawn)
Asked: Which one would you say has the larger melting point value: A , or B ? Field: selected label. Fill in the label of the entry you choose.
Given back: A

* * *

readout-type: melting point

// known answers, use as guide
compound="N#CC1=C(CO)Nc2n[nH]cc2C1c1ccccc1Cl (stereo not drawn)" readout_type="melting point" measured="205 to 210 °C (dec.)"
compound="CCOC(=O)C1=C(C(F)(F)F)Nc2n[nH]c(C)c2C1c1ccccc1Cl (stereo not drawn)" readout_type="melting point" measured="165 to 168 °C"
compound="CCCC1=C(C(=O)OCC)C(c2cccc(C)c2Cl)c2c[nH]nc2N1 (stereo not drawn)" readout_type="melting point" measured="198 to 200 °C"
compound="CC(C)(C)OC(=O)N1CCC(C2=C(C#N)C(c3cccc(C#N)c3Br)c3c[nH]nc3N2)CC1 (stereo not drawn)" readout_type="melting point" measured="> 270 °C"

Pending compound:
Asked: Quick one: melting point for N#CC1=C(C2CCN(C(=O)c3ccccc3)CC2)Nc2n[nH]cc2C1c1cccc(C#N)c1Br (stereo not drawn) ?
Given back: > 280 °C

* * *

readout-type: melting point (°C)

compound="CCCC1=C(C#N)C(c2ccccc2Cl)c2c(n[nH]c2-c2cccs2)N1 (centres unmarked) [Example 294]" readout_type="melting point" measured=256
compound="CCCC1=C(C(=O)OCC)C(c2cccc3c2OCC=C3)c2c[nH]nc2N1 (centres unmarked) [Example 72]" readout_type="melting point" measured=194
compound="CCCC1=C(C#N)C(c2cccc3ccccc23)c2c[nH]nc2N1 (centres unmarked) [Example 135]" readout_type="melting point" measured=263

* * *

readout-type: melting point (°C)

compound="CN(CCC1=C(C#N)C(c2cccc3nonc23)c2c[nH]nc2N1)C(=O)OC(C)(C)C (stereo not drawn) [Example 1015]" readout_type="melting point" measured=240
compound="CCCC1=C(C#N)C(c2ccccc2C)c2c[nH]nc2N1 (stereo not drawn) [Example 131]" readout_type="melting point" measured=230
compound="CCCC1=C(C#N)C(c2ccccc2Cl)c2c[nH]nc2N1 (stereo not drawn) [Example 94]" readout_type="melting point" measured=248
compound="Cc1ccccc1C1C(C#N)=C(c2cccs2)Nc2n[nH]cc21 (stereo not drawn) [Example 249]" readout_type="melting point" measured=276
compound="CCCC1=C(C#N)C(c2ccccc2[N+](=O)[O-])c2c[nH]nc2N1 (stereo not drawn) [Example 132]" readout_type="melting point" measured=216
compound="Cc1cccc(C2C(C#N)=C(C(C)C)Nc3n[nH]cc32)c1[N+](=O)[O-] (stereo not drawn) [Example 339]" readout_type="melting point" measured=261
compound="CCCC1=C(C(=O)OCC)C(c2c(Cl)cccc2Cl)c2c[nH]nc2N1 (stereo not drawn) [Example 55]" readout_type="melting point" measured=202
compound="CCCC1=C(C#N)C(c2cccc3oc(C)nc23)c2c[nH]nc2N1 (stereo not drawn) [Example 139]" readout_type="melting point" measured=208
compound="N#CC1=C(c2ccco2)Nc2n[nH]cc2C1c1cccc2nonc12 (stereo not drawn) [Example 170]" readout_type="melting point" measured=241
compound="CCCC1=C(C(=O)OCC)C(c2nccn2C)c2c[nH]nc2N1 (stereo not drawn) [Example 237]" readout_type="melting point" measured=209
